- experimental.protocol: M. tuberculosis H37Rv growth inhibitors, H37Rv strain (AID 1626);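 also: bacteria incubated seven days before Alamar blue readout; 0% = bacteria only wells and 100% = bacteria with antibiotic wells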
- setup.conditions: active compounds read high, concentration not given here
Screen size: about 220,000 compounds; about 2,000 (0.91%) were called active. Inconclusive results (about 2%) are left out. A selection follows. Measured potencies and affinities stand elsewhere.
metric.name: inhibition (%)

>  <compound>
COC(=O)CSc1nnc(-c2ccc(S(=O)(=O)NCc3cccs3)cc2)o1

>  <metric.name>
inhibition

>  <observed.measurement>
62.9

$$$$
>  <compound>
Cc1nn(Cc2ccccc2)c(N)c1-c1ccccc1

>  <metric.name>
inhibition

>  <observed.measurement>
-0.48

$$$$
>  <compound>
Cc1cc(C)c(S(=O)(=O)N2CCC(C(=O)NCc3ccc(Cl)cc3Cl)CC2)c(C)c1

>  <metric.name>
inhibition

>  <observed.measurement>
4.79

$$$$
>  <compound>
CCOC(=O)N1CCN(C(c2ccc(C(C)C)cc2)c2sc3nc(C)nn3c2O)CC1 (stereo not given)

>  <metric.name>
inhibition

>  <observed.measurement>
0.52

$$$$
>  <compound>
CCOc1cccc(/C=C/C(=O)O)c1

>  <metric.name>
inhibition

>  <observed.measurement>
4.51

$$$$
>  <compound>
CS(=O)(=O)c1cccc(C(=O)NCc2ccc(F)cc2)c1

>  <metric.name>
inhibition

>  <observed.measurement>
9.82

$$$$
>  <compound>
CN1C(=O)C(=Cc2ccc(-c3cccc(Cl)c3)o2)C(=O)N(C)C1=O

>  <metric.name>
inhibition

>  <observed.measurement>
5.04

$$$$
>  <compound>
COc1ccc(CN2C(=O)N(c3ccc(OC)cc3)C(=O)C2CC(=O)Nc2ccccc2)cc1 (stereo not given)

>  <metric.name>
inhibition

>  <observed.measurement>
6.5

$$$$
>  <compound>
CCn1ccnc1CNC(=O)CC1C(=O)NCCN1CC(c1ccccc1)c1ccccc1 (stereo not given)

>  <metric.name>
inhibition

>  <observed.measurement>
4.83

$$$$
>  <compound>
Cc1cc(C)n2c(SC/C(O)=C(\C#N)c3nc4ccccc4[nH]3)nnc2n1

>  <metric.name>
inhibition

>  <observed.measurement>
-3.82

$$$$
